Measured Long-term stability (−20 °C), Difference, listed per entry for reference.
Assay summary: Analyte stability in brain homogenate
Format: physicochemical, human
Protocol conditions: 39 days, LQC 0.6 nM, vs freshly processed QC
// return numeric value only (unit: %, not printed)

# Input smiles, Measurement unit, Long-term stability (−20 °C), Difference
rows = [
    ("CCN1CCN(Cc2ccc(Nc3ncc(F)c(-c4cc(F)c5nc(CO)n(C(C)C)c5c4)n3)nc2)CC1", "%", "−3.9"),
]

What does the data say about its Long-term stability (−20 °C), Difference? Entry: Cn1nccc1Nc1nccc(-c2cc3c(s2)C(C)(C)N(CCN2CCOCC2)C3=O)n1 −5.9

What does the data say about its Long-term stability (−20 °C), Difference? Entry: Cc1nc2c(F)cc(-c3nc(Nc4ccc(CN5CCNCC5)cn4)ncc3F)cc2n1C(C)C −9.5

What does the data say about its Long-term stability (−20 °C), Difference? Entry: CCN1CCN(Cc2ccc(Nc3ncc(F)c(-c4cc(F)c5nc(C)n(C(C)C)c5c4)n3)nc2)CC1 −6.9
